TARGET OF ASSAY: βarr1–12-398-AF488-AT647 (human) (UniProt P49407)
Where no end group is shown, it is not given here. [ ]: non-standard residue; d: D form. pT = C[C@@H](OP(=O)(O)O)[C@H](N)C(=O)O; pS = N[C@@H](COP(=O)(O)O)C(=O)O
OBSERVABLE: EC50 (nM)
Report as a plain number; the unit nM is understood.

input: Please look up its EC50: ARGR[pT]PP[pS]LGPQDE[pS]C[pT][pT]A[pS][pS][pS]LAKDTSS
output: 750
